test system: Escherichia coli TOP10; assay: shrunken log2 fold change of peptide-encoding DNA abundance (4.5 h post-induction vs induction); higher = less antimicrobial activity (less host growth inhibition); settings: time post-induction: 4.5 h; library: site-saturation at positions 5, 18, 19, 20
measurementLabel: shrunken log2 fold change

residueCodes: RRIRGRPPRLPRPRPRPLYPPRP
measurementLabel: shrunken log2 fold change
resultNumber: 0.162
--
residueCodes: RRIRVRPPRLPRPRPRPWPYPRP
measurementLabel: shrunken log2 fold change
resultNumber: -0.197
--
residueCodes: RRIRERPPRLPRPRPRPLCAPRP
measurementLabel: shrunken log2 fold change
resultNumber: -0.0485
--
residueCodes: RRIRIRPPRLPRPRPRPSCIPRP
measurementLabel: shrunken log2 fold change
resultNumber: -0.0523

###

test system: Escherichia coli TOP10; assay: shrunken log2 fold change of peptide-encoding DNA abundance (4.5 h post-induction vs induction); higher = less antimicrobial activity (less host growth inhibition); details: time post-induction: 4.5 h; library: site-saturation at positions 5, 18, 19, 20
Listed here: items and their measured shrunken log2 fold change.

residueCodes: RRIRYRPPRLPRPRPRPPWNPRP
shrunken log2 fold change: -0.161

residueCodes: RRIRIRPPRLPRPRPRPDSMPRP
shrunken log2 fold change: -0.00884

residueCodes: RRIRPRPPRLPRPRPRPGVIPRP
shrunken log2 fold change: -0.321

residueCodes: RRIRFRPPRLPRPRPRPVFSPRP
shrunken log2 fold change: -0.293

residueCodes: RRIRCRPPRLPRPRPRPGWAPRP
shrunken log2 fold change: 0.606

residueCodes: RRIRVRPPRLPRPRPRPDNMPRP
shrunken log2 fold change: -0.868

residueCodes: RRIRRRPPRLPRPRPRPKETPRP
shrunken log2 fold change: 0.17

residueCodes: RRIRNRPPRLPRPRPRPRFYPRP
shrunken log2 fold change: -0.201

residueCodes: RRIRGRPPRLPRPRPRPNVRPRP
shrunken log2 fold change: 0.265

residueCodes: RRIRPRPPRLPRPRPRPEILPRP
shrunken log2 fold change: 0.0928

residueCodes: RRIRVRPPRLPRPRPRPPCDPRP
shrunken log2 fold change: 0.52

residueCodes: RRIRARPPRLPRPRPRPLARPRP
shrunken log2 fold change: 0.81

residueCodes: RRIRRRPPRLPRPRPRPQPVPRP
shrunken log2 fold change: 0.299

residueCodes: RRIRPRPPRLPRPRPRPTITPRP
shrunken log2 fold change: -0.347

residueCodes: RRIRYRPPRLPRPRPRPTTLPRP
shrunken log2 fold change: -0.0157

residueCodes: RRIRARPPRLPRPRPRPGNIPRP
shrunken log2 fold change: -0.239

residueCodes: RRIRNRPPRLPRPRPRPRHFPRP
shrunken log2 fold change: -0.201

residueCodes: RRIRRRPPRLPRPRPRPFEVPRP
shrunken log2 fold change: 0.0871

residueCodes: RRIRERPPRLPRPRPRPETTPRP
shrunken log2 fold change: 0.165

residueCodes: RRIRMRPPRLPRPRPRPRNYPRP
shrunken log2 fold change: -0.0232

residueCodes: RRIRARPPRLPRPRPRPIRAPRP
shrunken log2 fold change: 0.242

residueCodes: RRIRYRPPRLPRPRPRPMKVPRP
shrunken log2 fold change: 0.0135

residueCodes: RRIRERPPRLPRPRPRPMYSPRP
shrunken log2 fold change: -0.552

residueCodes: RRIRWRPPRLPRPRPRPGAGPRP
shrunken log2 fold change: 0.796

residueCodes: RRIRPRPPRLPRPRPRPMQRPRP
shrunken log2 fold change: 0.195

###

tested on: Escherichia coli TOP10; experiment: shrunken log2 fold change of peptide-encoding DNA abundance (4.5 h post-induction vs induction); higher = less antimicrobial activity (less host growth inhibition); settings: time post-induction: 4.5 h; library: site-saturation at positions 5, 18, 19, 20

residueCodes: RRIRKRPPRLPRPRPRPLRWPRP
shrunken log2 fold change: 1.37
//
residueCodes: RRIRKRPPRLPRPRPRPEAFPRP
shrunken log2 fold change: 0.434
//
residueCodes: RRIRLRPPRLPRPRPRPTQKPRP
shrunken log2 fold change: 0.194

###

test system: Escherichia coli TOP10; test: shrunken log2 fold change of peptide-encoding DNA abundance (4.5 h post-induction vs induction); higher = less antimicrobial activity (less host growth inhibition); details: time post-induction: 4.5 h; library: site-saturation at positions 5, 18, 19, 20
Listed here: items and their measured shrunken log2 fold change.

residueCodes: RRIRMRPPRLPRPRPRPLIHPRP
assayTarget: Escherichia coli TOP10
shrunken log2 fold change: -0.207
--
residueCodes: RRIRIRPPRLPRPRPRPNQCPRP
assayTarget: Escherichia coli TOP10
shrunken log2 fold change: -0.465
--
residueCodes: RRIRVRPPRLPRPRPRPHCTPRP
assayTarget: Escherichia coli TOP10
shrunken log2 fold change: -1.21
--
residueCodes: RRIRHRPPRLPRPRPRPAIYPRP
assayTarget: Escherichia coli TOP10
shrunken log2 fold change: -0.798
--
residueCodes: RRIRVRPPRLPRPRPRPKWFPRP
assayTarget: Escherichia coli TOP10
shrunken log2 fold change: -0.0567
--
residueCodes: RRIRIRPPRLPRPRPRPCSMPRP
assayTarget: Escherichia coli TOP10
shrunken log2 fold change: -0.00947
--
residueCodes: RRIRRRPPRLPRPRPRPLIWPRP
assayTarget: Escherichia coli TOP10
shrunken log2 fold change: 0.192
--
residueCodes: RRIRKRPPRLPRPRPRPKRIPRP
assayTarget: Escherichia coli TOP10
shrunken log2 fold change: 0.0395
--
residueCodes: RRIRRRPPRLPRPRPRPKSEPRP
assayTarget: Escherichia coli TOP10
shrunken log2 fold change: 0.0316
--
residueCodes: RRIRCRPPRLPRPRPRPGATPRP
assayTarget: Escherichia coli TOP10
shrunken log2 fold change: 0.512
--
residueCodes: RRIRPRPPRLPRPRPRPCMCPRP
assayTarget: Escherichia coli TOP10
shrunken log2 fold change: -0.0305
--
residueCodes: RRIRTRPPRLPRPRPRPILLPRP
assayTarget: Escherichia coli TOP10
shrunken log2 fold change: -0.658
--
residueCodes: RRIRQRPPRLPRPRPRPLKHPRP
assayTarget: Escherichia coli TOP10
shrunken log2 fold change: -0.589
--
residueCodes: RRIRIRPPRLPRPRPRPQCVPRP
assayTarget: Escherichia coli TOP10
shrunken log2 fold change: -0.0555
--
residueCodes: RRIRTRPPRLPRPRPRPGMAPRP
assayTarget: Escherichia coli TOP10
shrunken log2 fold change: -0.0805
--
residueCodes: RRIRLRPPRLPRPRPRPSLSPRP
assayTarget: Escherichia coli TOP10
shrunken log2 fold change: -0.305
--
residueCodes: RRIRGRPPRLPRPRPRPSPEPRP
assayTarget: Escherichia coli TOP10
shrunken log2 fold change: 0.498
--
residueCodes: RRIRVRPPRLPRPRPRPGTSPRP
assayTarget: Escherichia coli TOP10
shrunken log2 fold change: -0.073
--
residueCodes: RRIRTRPPRLPRPRPRPRQKPRP
assayTarget: Escherichia coli TOP10
shrunken log2 fold change: 0.0911
--
residueCodes: RRIRPRPPRLPRPRPRPISAPRP
assayTarget: Escherichia coli TOP10
shrunken log2 fold change: -0.0726
--
residueCodes: RRIRHRPPRLPRPRPRPEDTPRP
assayTarget: Escherichia coli TOP10
shrunken log2 fold change: 0.0437
--
residueCodes: RRIRWRPPRLPRPRPRPINLPRP
assayTarget: Escherichia coli TOP10
shrunken log2 fold change: -0.748
--
residueCodes: RRIRHRPPRLPRPRPRPVVWPRP
assayTarget: Escherichia coli TOP10
shrunken log2 fold change: 0.524
--
residueCodes: RRIRCRPPRLPRPRPRPTDAPRP
assayTarget: Escherichia coli TOP10
shrunken log2 fold change: 0.215
--
residueCodes: RRIRIRPPRLPRPRPRPDRVPRP
assayTarget: Escherichia coli TOP10
shrunken log2 fold change: -0.0924
--
residueCodes: RRIRARPPRLPRPRPRPEMLPRP
assayTarget: Escherichia coli TOP10
shrunken log2 fold change: 0.234
--
residueCodes: RRIRTRPPRLPRPRPRPNCDPRP
assayTarget: Escherichia coli TOP10
shrunken log2 fold change: 1.31
--
residueCodes: RRIRSRPPRLPRPRPRPGMRPRP
assayTarget: Escherichia coli TOP10
shrunken log2 fold change: 0.789
--
residueCodes: RRIRTRPPRLPRPRPRPGMLPRP
assayTarget: Escherichia coli TOP10
shrunken log2 fold change: -0.141
--
residueCodes: RRIRYRPPRLPRPRPRPKWMPRP
assayTarget: Escherichia coli TOP10
shrunken log2 fold change: -0.27
--
residueCodes: RRIRHRPPRLPRPRPRPRCHPRP
assayTarget: Escherichia coli TOP10
shrunken log2 fold change: -0.555
--
residueCodes: RRIRFRPPRLPRPRPRPLYRPRP
assayTarget: Escherichia coli TOP10
shrunken log2 fold change: -0.702
--
residueCodes: RRIRFRPPRLPRPRPRPCTKPRP
assayTarget: Escherichia coli TOP10
shrunken log2 fold change: -0.229
--
residueCodes: RRIRPRPPRLPRPRPRPRSPPRP
assayTarget: Escherichia coli TOP10
shrunken log2 fold change: 0.592
--
residueCodes: RRIRKRPPRLPRPRPRPEKPPRP
assayTarget: Escherichia coli TOP10
shrunken log2 fold change: 0.0899
--
residueCodes: RRIRFRPPRLPRPRPRPVDEPRP
assayTarget: Escherichia coli TOP10
shrunken log2 fold change: 0.0494
--
residueCodes: RRIRMRPPRLPRPRPRPMMIPRP
assayTarget: Escherichia coli TOP10
shrunken log2 fold change: -0.025
--
residueCodes: RRIRKRPPRLPRPRPRPDDHPRP
assayTarget: Escherichia coli TOP10
shrunken log2 fold change: 0.0199
--
residueCodes: RRIRMRPPRLPRPRPRPEYQPRP
assayTarget: Escherichia coli TOP10
shrunken log2 fold change: 0.0424
--
residueCodes: RRIRTRPPRLPRPRPRPRTWPRP
assayTarget: Escherichia coli TOP10
shrunken log2 fold change: -0.0887
--
residueCodes: RRIRGRPPRLPRPRPRPQCTPRP
assayTarget: Escherichia coli TOP10
shrunken log2 fold change: 0.085
--
residueCodes: RRIRNRPPRLPRPRPRPCPKPRP
assayTarget: Escherichia coli TOP10
shrunken log2 fold change: 0.0342
--
residueCodes: RRIRIRPPRLPRPRPRPAGNPRP
assayTarget: Escherichia coli TOP10
shrunken log2 fold change: -0.0516
--
residueCodes: RRIRSRPPRLPRPRPRPHFNPRP
assayTarget: Escherichia coli TOP10
shrunken log2 fold change: -0.419
--
residueCodes: RRIRDRPPRLPRPRPRPKYEPRP
assayTarget: Escherichia coli TOP10
shrunken log2 fold change: -0.00728
--
residueCodes: RRIRCRPPRLPRPRPRPMDTPRP
assayTarget: Escherichia coli TOP10
shrunken log2 fold change: 0.0459
--
residueCodes: RRIRNRPPRLPRPRPRPQKKPRP
assayTarget: Escherichia coli TOP10
shrunken log2 fold change: 0.0889
--
residueCodes: RRIRMRPPRLPRPRPRPKQAPRP
assayTarget: Escherichia coli TOP10
shrunken log2 fold change: 3.56
--
residueCodes: RRIRARPPRLPRPRPRPPVSPRP
assayTarget: Escherichia coli TOP10
shrunken log2 fold change: 0.554
--
residueCodes: RRIRVRPPRLPRPRPRPNFPPRP
assayTarget: Escherichia coli TOP10
shrunken log2 fold change: 0.0508
--
residueCodes: RRIRFRPPRLPRPRPRPYVVPRP
assayTarget: Escherichia coli TOP10;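 also: peptides expressed intracellularly from a pBAD plasmid library in pooled LB shake-flask culture, induced with 0.3% L-arabinose, DNA abundance read by NGS, three biological replicates, DESeq2 with apeglm shrinkage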
shrunken log2 fold change: -0.252
